target-or-test-system: human ALK2 R206H (Homo sapiens, UniProt Q04771, R206H)
Construct: expressed in transfected cells; host or cells: HEK293 (ATCC CRL1573), lentivirus transduction, blasticidin selection
Sequence (Q04771 21-509 R206H): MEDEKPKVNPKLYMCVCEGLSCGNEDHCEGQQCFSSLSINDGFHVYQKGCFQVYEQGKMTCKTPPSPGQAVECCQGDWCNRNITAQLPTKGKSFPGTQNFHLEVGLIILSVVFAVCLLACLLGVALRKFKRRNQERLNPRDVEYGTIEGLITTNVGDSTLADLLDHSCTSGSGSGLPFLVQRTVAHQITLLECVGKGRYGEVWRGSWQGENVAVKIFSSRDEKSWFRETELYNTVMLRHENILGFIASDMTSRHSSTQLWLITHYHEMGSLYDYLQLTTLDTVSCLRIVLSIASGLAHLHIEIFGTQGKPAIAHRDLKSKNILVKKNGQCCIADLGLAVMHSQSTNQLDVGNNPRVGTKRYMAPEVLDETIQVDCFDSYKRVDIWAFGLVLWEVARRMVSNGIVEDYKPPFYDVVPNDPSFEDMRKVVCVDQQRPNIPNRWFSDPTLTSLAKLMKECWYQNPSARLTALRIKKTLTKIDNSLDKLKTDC
assay-protocol: Cell-based ALK2-R206H cell activity assay (Smad1-Ser463/Ser465 phosphorylation by AlphaLISA in HEK293-ALK2-R206H cells)
recorded-conditions: read-out: Cell Line (Cell Assay IC50)
pIC50: −log10 of the molar value.

compound	pIC50
CC(C)N1CCC[C@@H](c2ccc(-c3cc4c(N5CCN(C(=O)OCCC#N)CC5)ccnn4c3)cc2)C1	> 7.00
CCN1CC[C@H](c2ccc(-c3cc4c(N5CCN(C(=O)C6CC6)CC5)ccnn4c3)cc2)C(F)C1 (stereo partly shown)	6.30 to 7.00
CC(C)N1CCN(c2ccc(-c3cc4c(N5CCN(C(=O)[C@H]6CC[C@H](C#N)CC6)CC5)ccnn4c3)cc2)CC1	> 7.00
CCN(CC)[C@@H](CO)c1ccc(-c2cc3c(N4CCN(C(=O)OC5COC5)CC4)ccnn3c2)cc1	> 7.00
